# System: Wolbachia pipientis
# protocolNotes: Anti-Wolbachia Cell-Based Screen
# Format: functional
# Design: scale not given: in the data most compounds retested in dose-response had high values
# conditionInfo: 5 µM
Out of some 48,000 compounds screened, about 13,000 (27%) showed an effect of 50% or more. Some of the results follow.
# Percent Effect per entry

{"columns": ["compound", "Percent Effect (%)"],
 "data": [
  ["COCc1nc(C(=O)N(Cc2ccccc2)CC(C)C(=O)O)cs1 (configuration not stated)", 6.809],
  ["COc1ccc2c(c1)OCC(Cc1cnccc1N)C2 (configuration not stated)", 13.35],
  ["CCc1nccn1C1CCCN(C(=O)c2cnc[nH]2)C1 (configuration not stated)", 2.73],
  ["COc1cccc(-n2cc(CN(C)C(=O)c3cc[nH]n3)cn2)c1", -0.6043],
  ["CCOCCOC(C)C(=O)Nc1ccc2ccn(CCN(C)C)c2c1 (configuration not stated)", 3.941],
  ["Cn1c(C2CC2)nc2cc(NC(=O)C3CC=CC3)ccc21", -5.037],
  ["COc1ccc2c(c1)OCC(Cc1ccc(C)nc1N)C2 (configuration not stated)", 95.38],
  ["CCNC(=O)c1ccnc(NCC2COc3cc(OC)ccc3C2)c1 (configuration not stated)", -7.933],
  ["COCCN(Cc1ccccc1)C(=O)c1csc(-c2nnc[nH]2)n1", 98.7],
  ["Cc1cc(NC(=O)Nc2ccc3c(ccn3CCN(C)C)c2)n(C)n1", 0.0592],
  ["CN(CCCOc1ccccc1)C(=O)c1csc(-c2nnc[nH]2)n1", 111.9],
  ["CC(CC(=O)Nc1ccc(C(=O)N(C)C)c(Cl)c1)n1cccc1 (configuration not stated)", -5.842]
]}
